Method Notes: Ex vivo biodistribution of 177Lu-labeled ligands in PC-3 tumor-bearing mice
Run Conditions: mouse, heart, intravenous, 120 h pi, n = 5; read-out: Heart uptake
Measure: tissue uptake at 120 h (%ID/g)
State just the number; it will be interpreted in %ID/g.

Task: Any idea what tissue uptake at 120 h was measured for CC(C)C[C@H](NC(=O)[C@H](Cc1cnc[nH]1)N(C)C(=O)CNC(=O)[C@@H](NC(=O)[C@H](C)NC(=O)[C@H](Cc1c[nH]c2ccccc12)NC(=O)[C@H](CCC(N)=O)NC(=O)[C@@H](Cc1ccccc1)NC(=O)CN1CCC(NC(=O)CN2CCN(CC(=O)O)CCN(CC(=O)O)CCN(CC(=O)O)CC2)CC1)C(C)(C)C)C(=O)N1CC(F)(F)C[C@H]1C(N)=O [[^177Lu]Lu-LW02060, metal not drawn] ?
Result: 0.01

Task: Item: CC(C)C[C@@H](CN1CC(F)(F)C[C@H]1C(N)=O)NC(=O)[C@H](Cc1c[nH]cn1)NC(=O)CN(C)C(=O)[C@@H](NC(=O)[C@H](C)NC(=O)[C@H](Cc1c[nH]c2ccccc12)NC(=O)[C@H](CCC(N)=O)NC(=O)[C@@H](Cc1ccccc1)NC(=O)CN1CCC(NC(=O)CN2CCN(CC(=O)O)CCN(CC(=O)O)CCN(CC(=O)O)CC2)CC1)C(C)C [[^177Lu]Lu-LW02080, metal not drawn]
Result: 0.01

* * *

Documented tissue uptake at 120 h across a set of compounds
Method Notes: Ex vivo biodistribution of 177Lu-labeled ligands in PC-3 tumor-bearing mice
Run Conditions: mouse, testes, intravenous, 120 h pi, n = 5; read-out: Testes uptake
State just the number; it will be interpreted in %ID/g.

Compound	Measure	Measured Result
CC(C)C[C@@H](CN1CC(F)(F)C[C@H]1C(N)=O)NC(=O)[C@H](Cc1c[nH]cn1)NC(=O)CN(C)C(=O)[C@@H](NC(=O)[C@H](C)NC(=O)[C@H](Cc1c[nH]c2ccccc12)NC(=O)[C@H](CCC(N)=O)NC(=O)[C@@H](Cc1ccccc1)NC(=O)CN1CCC(NC(=O)CN2CCN(CC(=O)O)CCN(CC(=O)O)CCN(CC(=O)O)CC2)CC1)C(C)C [[^177Lu]Lu-LW02080, metal not drawn]	tissue uptake at 120 h	0.01

The record that follows has no tissue uptake at 120 h shown yet.
Task: Any idea what tissue uptake at 120 h was measured for CC(C)C[C@H](NC(=O)[C@H](Cc1cnc[nH]1)N(C)C(=O)CNC(=O)[C@@H](NC(=O)[C@H](C)NC(=O)[C@H](Cc1c[nH]c2ccccc12)NC(=O)[C@H](CCC(N)=O)NC(=O)[C@@H](Cc1ccccc1)NC(=O)CN1CCC(NC(=O)CN2CCN(CC(=O)O)CCN(CC(=O)O)CCN(CC(=O)O)CC2)CC1)C(C)(C)C)C(=O)N1CC(F)(F)C[C@H]1C(N)=O [[^177Lu]Lu-LW02060, metal not drawn] ?
Result: 0.01

* * *

Documented tissue uptake at 1 h across a set of compounds
Method Notes: Ex vivo biodistribution of 177Lu-labeled ligands in PC-3 tumor-bearing mice
Run Conditions: mouse, PC-3 tumor, intravenous, 100 ug, 1 h pi, blocked (100 µg GRPR antagonist co-injected); read-out: PC-3 tumor uptake

Compound	Measured Result
CC(C)C[C@@H](CN1CC(F)(F)C[C@H]1C(N)=O)NC(=O)[C@H](Cc1c[nH]cn1)NC(=O)CN(C)C(=O)[C@@H](NC(=O)[C@H](C)NC(=O)[C@H](Cc1c[nH]c2ccccc12)NC(=O)[C@H](CCC(N)=O)NC(=O)[C@@H](Cc1ccccc1)NC(=O)CN1CCC(NC(=O)CN2CCN(CC(=O)O)CCN(CC(=O)O)CCN(CC(=O)O)CC2)CC1)C(C)C [[^177Lu]Lu-LW02080, metal not drawn]	2.02 %ID/g

The record that follows has no tissue uptake at 1 h shown yet.
Task: Any idea what tissue uptake at 1 h was measured for CC(C)C[C@H](NC(=O)[C@H](Cc1cnc[nH]1)N(C)C(=O)CNC(=O)[C@@H](NC(=O)[C@H](C)NC(=O)[C@H](Cc1c[nH]c2ccccc12)NC(=O)[C@H](CCC(N)=O)NC(=O)[C@@H](Cc1ccccc1)NC(=O)CN1CCC(NC(=O)CN2CCN(CC(=O)O)CCN(CC(=O)O)CCN(CC(=O)O)CC2)CC1)C(C)(C)C)C(=O)N1CC(F)(F)C[C@H]1C(N)=O [[^177Lu]Lu-LW02060, metal not drawn] ?
Result: 3.25 %ID/g

* * *

Documented tissue uptake at 72 h across a set of compounds
Method Notes: Ex vivo biodistribution of 177Lu-labeled ligands in PC-3 tumor-bearing mice
Run Conditions: mouse, stomach, intravenous, 72 h pi, n = 5; read-out: Stomach uptake
State just the number; it will be interpreted in %ID/g.

Compound	tissue uptake at 72 h [%ID/g]
CC(C)C[C@@H](CN1CC(F)(F)C[C@H]1C(N)=O)NC(=O)[C@H](Cc1c[nH]cn1)NC(=O)CN(C)C(=O)[C@@H](NC(=O)[C@H](C)NC(=O)[C@H](Cc1c[nH]c2ccccc12)NC(=O)[C@H](CCC(N)=O)NC(=O)[C@@H](Cc1ccccc1)NC(=O)CN1CCC(NC(=O)CN2CCN(CC(=O)O)CCN(CC(=O)O)CCN(CC(=O)O)CC2)CC1)C(C)C [[^177Lu]Lu-LW02080, metal not drawn]	0.02

Task: Any idea what tissue uptake at 72 h was measured for CC(C)C[C@H](NC(=O)[C@H](Cc1cnc[nH]1)N(C)C(=O)CNC(=O)[C@@H](NC(=O)[C@H](C)NC(=O)[C@H](Cc1c[nH]c2ccccc12)NC(=O)[C@H](CCC(N)=O)NC(=O)[C@@H](Cc1ccccc1)NC(=O)CN1CCC(NC(=O)CN2CCN(CC(=O)O)CCN(CC(=O)O)CCN(CC(=O)O)CC2)CC1)C(C)(C)C)C(=O)N1CC(F)(F)C[C@H]1C(N)=O [[^177Lu]Lu-LW02060, metal not drawn] ?
Result: 0.07

* * *

Method Notes: Ex vivo biodistribution of 177Lu-labeled ligands in PC-3 tumor-bearing mice
Run Conditions: mouse, heart, intravenous, 72 h pi, n = 5; read-out: Heart uptake
Measure: tissue uptake at 72 h (%ID/g)
State just the number; it will be interpreted in %ID/g.

Compound	tissue uptake at 72 h [%ID/g]
CC(C)C[C@H](NC(=O)[C@H](Cc1cnc[nH]1)N(C)C(=O)CNC(=O)[C@@H](NC(=O)[C@H](C)NC(=O)[C@H](Cc1c[nH]c2ccccc12)NC(=O)[C@H](CCC(N)=O)NC(=O)[C@@H](Cc1ccccc1)NC(=O)CN1CCC(NC(=O)CN2CCN(CC(=O)O)CCN(CC(=O)O)CCN(CC(=O)O)CC2)CC1)C(C)(C)C)C(=O)N1CC(F)(F)C[C@H]1C(N)=O [[^177Lu]Lu-LW02060, metal not drawn]	0.01

The record that follows has no tissue uptake at 72 h shown yet.
Task: Any idea what tissue uptake at 72 h was measured for CC(C)C[C@@H](CN1CC(F)(F)C[C@H]1C(N)=O)NC(=O)[C@H](Cc1c[nH]cn1)NC(=O)CN(C)C(=O)[C@@H](NC(=O)[C@H](C)NC(=O)[C@H](Cc1c[nH]c2ccccc12)NC(=O)[C@H](CCC(N)=O)NC(=O)[C@@H](Cc1ccccc1)NC(=O)CN1CCC(NC(=O)CN2CCN(CC(=O)O)CCN(CC(=O)O)CCN(CC(=O)O)CC2)CC1)C(C)C [[^177Lu]Lu-LW02080, metal not drawn] ?
Result: 0.01

* * *

Method Notes: Ex vivo biodistribution of 68Ga-labeled tracers in PC-3 tumor-bearing mice
Run Conditions: male, NOD.Cg-Rag1^tm1Mom Il2rg^tm1Wjl/SzJ (NRG), mouse, tumor/blood, iv, total radioactivity, 1 h pi, blocked (100 µg blocking agent co-injected); read-out: Tumor/blood uptake ratio
Documented tissue to tissue ratio at 1 h across a set of compounds
Lab note: record the figure alone, no unit after it.

Compound	tissue to tissue ratio at 1 h
CC(C)C[C@@H](CN1CC(F)(F)C[C@H]1C(N)=O)NC(=O)[C@H](Cc1c[nH]cn1)NC(=O)CN(C)C(=O)[C@@H](NC(=O)[C@H](C)NC(=O)[C@H](Cc1c[nH]c2ccccc12)NC(=O)[C@H](CCC(N)=O)NC(=O)[C@@H](Cc1ccccc1)NC(=O)CN1CCC(NC(=O)CN2CCN(CC(=O)O)CCN(CC(=O)O)CCN(CC(=O)O)CC2)CC1)C(C)C [[^68Ga]Ga-LW02080, metal not drawn]	0.87

The record that follows has no tissue to tissue ratio at 1 h shown yet.
Task: Any idea what tissue to tissue ratio at 1 h was measured for CC(C)C[C@H](NC(=O)[C@H](Cc1cnc[nH]1)N(C)C(=O)CNC(=O)[C@@H](NC(=O)[C@H](C)NC(=O)[C@H](Cc1c[nH]c2ccccc12)NC(=O)[C@H](CCC(N)=O)NC(=O)[C@@H](Cc1ccccc1)NC(=O)CN1CCC(NC(=O)CN2CCN(CC(=O)O)CCN(CC(=O)O)CCN(CC(=O)O)CC2)CC1)C(C)(C)C)C(=O)N1CC(F)(F)C[C@H]1C(N)=O [[^68Ga]Ga-LW02060, metal not drawn] ?
Result: 3.72
